- System: HL-60
- METHOD: NCI tumour cell line growth inhibition, 48 h
The source made the active and inactive calls. Cut-off read from the data, not from the text of the source: active = GI50 up to about 1.1 µM and inactive = higher.
Classes used: True for active, False for inactive

[
  {
    "COMPOUND": "COP(=O)(OC)/C(=N\\Nc1ccc([N+](=O)[O-])cc1)NCc1ccccc1",
    "ANSWER LABEL": "False"
  },
  {
    "COMPOUND": "Cc1ccc(NC(=O)CC(=O)n2nc(-c3ccccc3)c(/N=N\\c3ccccc3[N+](=O)[O-])c2-c2ccccc2)cc1",
    "ANSWER LABEL": "False"
  },
  {
    "COMPOUND": "COc1ccc(C(CC(=O)c2cccs2)C(=O)c2ccc3c(c2)OCO3)cc1 (centres undefined)",
    "ANSWER LABEL": "False"
  },
  {
    "COMPOUND": "CCC(C)SC1SCC2C(=O)N(C)C3(CC3C)C(=O)OCC(NC(=O)c3nc4ccccc4cc3O)C(=O)NC(C)C(=O)N(C)C1C(=O)N(C)C1(CC1C)C(=O)OCC(NC(=O)c1nc3ccccc3cc1O)C(=O)NC(C)C(=O)N2C (centres undefined)",
    "ANSWER LABEL": "True"
  },
  {
    "COMPOUND": "CCCN1C(=O)CNC(=O)c2[nH]cnc21",
    "ANSWER LABEL": "False"
  },
  {
    "COMPOUND": "CC(C)C(Nc1c2ccccc2nc2ccccc12)C(=O)O (centres undefined)",
    "ANSWER LABEL": "False"
  },
  {
    "COMPOUND": "O=c1nc(N2CCCC2)nc(N2CCCC2)s1",
    "ANSWER LABEL": "False"
  },
  {
    "COMPOUND": "CCOC(=O)CCC(NC(=O)c1ccc(Nc2nc3ccc(C(F)(F)F)cc3nc2-c2ccccc2)cc1)C(=O)OCC (centres undefined)",
    "ANSWER LABEL": "False"
  },
  {
    "COMPOUND": "Cc1ccccc1C(=O)Oc1ccc(Oc2ccccc2)cc1",
    "ANSWER LABEL": "False"
  },
  {
    "COMPOUND": "C=CCOC1(CC=C)C(=O)OC2C(O)COC21O (centres undefined)",
    "ANSWER LABEL": "False"
  },
  {
    "COMPOUND": "COc1ccc(-c2cc(=O)c3c(O)c(OC)c(O)c(OC)c3o2)cc1OC",
    "ANSWER LABEL": "False"
  },
  {
    "COMPOUND": "CCN(CC)S(=O)(=O)c1ccc2[nH]c(NC(=O)OC)nc2c1",
    "ANSWER LABEL": "False"
  },
  {
    "COMPOUND": "O=C(Nc1cccc(C(F)(F)F)c1)O/N=C(/Cl)CCl",
    "ANSWER LABEL": "False"
  },
  {
    "COMPOUND": "N#CC1=C(N2CCOCC2)CCC1",
    "ANSWER LABEL": "False"
  },
  {
    "COMPOUND": "CC(=O)O[C@H]1C(=O)[C@@]2(C)C(C(OC(=O)c3ccccc3)[C@]3(O)CC(OC(=O)C(O)C(NC(=O)c4ccc(C(F)(F)F)cc4)c4ccccc4)C(C)=C1C3(C)C)[C@]1(OC(C)=O)CO[C@@H]1C[C@@H]2O (some centres undefined)",
    "ANSWER LABEL": "True"
  },
  {
    "COMPOUND": "Cc1cc(C)c(S(=O)(=O)N[C@@H](/C=C(\\Br)CO)C(C)C)c(C)c1",
    "ANSWER LABEL": "False"
  },
  {
    "COMPOUND": "O=C(CSc1nnc(-c2ccc(/N=C\\c3ccc(Cl)cc3)cc2)o1)Nc1ccccc1",
    "ANSWER LABEL": "False"
  },
  {
    "COMPOUND": "OCC1OC(OCC(O)C(O)C(O)C(/C=N/Nc2ccccc2)=N/Nc2ccccc2)C(O)C(O)C1O (centres undefined)",
    "ANSWER LABEL": "False"
  },
  {
    "COMPOUND": "CCOc1ccc(/C=C\\c2cc(OC)c(OC)c(OC)c2)cc1",
    "ANSWER LABEL": "True"
  },
  {
    "COMPOUND": "COc1c2cc([N+](=O)[O-])cc1CNC(=O)CN1CCOCCOCCN(CCOCCOCC1)CC(=O)NC2",
    "ANSWER LABEL": "False"
  },
  {
    "COMPOUND": "COc1ccnc2c1C(=O)c1nc3ccccc3c3ccnc-2c13",
    "ANSWER LABEL": "True"
  },
  {
    "COMPOUND": "CC[C@@H]1/C=C/C=C/C[C@H](C)[C@@H](O)[C@@H](C)C(=O)[C@H](C)[C@@H](O)[C@H](C)C(=O)[C@H](C)[C@@H](O)[C@H](C)/C=C/C(=O)O[C@H]2[C@@H](C)[C@@H](CC1)O[C@@]1(CC[C@@H](C)[C@@H](CC(C)O)O1)[C@@H]2C (some centres undefined)",
    "ANSWER LABEL": "True"
  },
  {
    "COMPOUND": "CN(C)CCSCCO",
    "ANSWER LABEL": "False"
  },
  {
    "COMPOUND": "CC(=O)OC1COC(n2c(=S)n(-c3ccccc3)c(=O)c3ccccc32)C(OC(C)=O)C1OC(C)=O (centres undefined)",
    "ANSWER LABEL": "False"
  }
]
